Cited source for all entries: the supplement of paper PMC11061612

Listing of entries alongside the reported Bliss excess.
# Tested on: CPC-N (Small Cell Lung Carcinoma)
# testName: Bliss excess, mean over the matrix (fraction); higher = more synergy

# compound, Bliss excess
records = [
    ("Cc1c2c(nn1C)CSCc1cc(n(C)n1)CSc1cc(c3ccccc3c1)OCCCc1c(C(=O)O)n(C)c3c-2c(Cl)ccc13 [AZD5991] + CCN(CCO)CCCOc1ccc2c(Nc3cc(CC(=O)Nc4cccc(F)c4)[nH]n3)ncnc2c1 [AZD2811] (first compound max 1 µM, 7x7, partner max 1 µM)", 0.0311),
    ("C[C@@H](Oc1cc(-c2cnn(C3CCNCC3)c2)cnc1N)c1c(Cl)ccc(F)c1Cl [Crizotinib] + Cn1cnc2c(F)c(Nc3ccc(Br)cc3Cl)c(C(=O)NOCCO)cc21 [Selumetinib] (first compound max 10 µM, 7x7, partner max 10 µM)", -0.0663),
    ("N#Cc1cnc(Nc2cc(NC[C@H]3CNCCO3)c(C(F)(F)F)cn2)cn1 [SRA737] + C=CCn1c(=O)c2cnc(Nc3ccc(N4CCN(C)CC4)cc3)nc2n1-c1cccc(C(C)(C)O)n1 [AZD1775] (first compound max 10 µM, partner max 1 µM)", 0.0589),
    ("CN(CCO)CC[C@H](CSc1ccccc1)Nc1ccc(S(=O)(=O)NC(=O)c2ccc(N3CCC([C@@H](O)c4ccccc4-c4ccc(Cl)cc4)CC3)cc2)cc1S(=O)(=O)C(F)(F)F [AZD4320] + C[C@@H]1COCCN1C2=NC(=NC(=C2)C3(CC3)[S@](=N)(=O)C)C4=C5C=CNC5=NC=C4 [AZD6738] (first compound max 1 µM, 7x7, partner max 10 µM)", 0.0146),
    ("C=CCn1c(=O)c2cnc(Nc3ccc(N4CCN(C)CC4)cc3)nc2n1-c1cccc(C(C)(C)O)n1 [AZD1775] + CCc1c2c(nc3ccc(O)cc13)-c1cc3c(c(=O)n1C2)COC(=O)[C@]3(O)CC [SN-38] (first compound max 1 µM, partner max 0.3 µM)", 0.0523),
    ("COc1nnc2ccc(N3CCC(c4ccc(OCCN5CCN(C)C(=O)[C@H]5C)cc4)CC3)nn12 [AZD5153] + CCN(CCO)CCCOc1ccc2c(Nc3cc(CC(=O)Nc4cccc(F)c4)[nH]n3)ncnc2c1 [AZD2811] (first compound max 1 µM, 7x7, partner max 1 µM)", -0.0601),
    ("CN(CCO)CC[C@H](CSc1ccccc1)Nc1ccc(S(=O)(=O)NC(=O)c2ccc(N3CCC([C@@H](O)c4ccccc4-c4ccc(Cl)cc4)CC3)cc2)cc1S(=O)(=O)C(F)(F)F [AZD4320] + C=CCn1c(=O)c2cnc(Nc3ccc(N4CCN(C)CC4)cc3)nc2n1-c1cccc(C(C)(C)O)n1 [AZD1775] (first compound max 1 µM, partner max 1 µM)", 0.0249),
    ("Cc1c2c(nn1C)CSCc1cc(n(C)n1)CSc1cc(c3ccccc3c1)OCCCc1c(C(=O)O)n(C)c3c-2c(Cl)ccc13 [AZD5991] + Cn1cnc2c(F)c(Nc3ccc(Br)cc3Cl)c(C(=O)NOCCO)cc21 [Selumetinib] (first compound max 1 µM, 7x7, partner max 3 µM)", 0.0185),
]

* * *

# Tested on: MOLP-8 (Plasma Cell Myeloma)
# testName: combination Emax (second highest fraction inhibited in the dose matrix, 72 h); higher = more inhibition; extreme values may be limits of the assay
Listing of entries alongside the reported combination Emax.

# molecule, combination Emax
rows = [
    ("Cc1cc2ncnn2cc1Nc1ncc2c(n1)n(C1CCOCC1)c(=O)n2C [AZD7648] + C[C@@H]1COCCN1C2=NC(=NC(=C2)C3(CC3)[S@](=N)(=O)C)C4=C5C=CNC5=NC=C4 [AZD6738] (first compound max 10 µM, 7x7, partner max 10 µM)", 0.822),
    ("CC1(C)CCC(CN2CCN(c3ccc(C(=O)NS(=O)(=O)c4ccc(NCC5CCOCC5)c([N+](=O)[O-])c4)c(Oc4cnc5[nH]ccc5c4)c3)CC2)=C(c2ccc(Cl)cc2)C1 [Venetoclax] + C[C@@H](Nc1cc(F)cc(F)c1)c1cc(C(=O)N(C)C)cc2c(=O)cc(N3CCOCC3)oc12 [AZD8186] (first compound max 1 µM, 7x7, partner max 3 µM)", 0.455),
    ("Cc1c2c(nn1C)CSCc1cc(n(C)n1)CSc1cc(c3ccccc3c1)OCCCc1c(C(=O)O)n(C)c3c-2c(Cl)ccc13 [AZD5991] + CC1(C)CCC(CN2CCN(c3ccc(C(=O)NS(=O)(=O)c4ccc(NCC5CCOCC5)c([N+](=O)[O-])c4)c(Oc4cnc5[nH]ccc5c4)c3)CC2)=C(c2ccc(Cl)cc2)C1 [Venetoclax] (first compound max 1 µM, 7x7, partner max 1 µM)", 1),
    ("CN(CCO)CC[C@H](CSc1ccccc1)Nc1ccc(S(=O)(=O)NC(=O)c2ccc(N3CCC([C@@H](O)c4ccccc4-c4ccc(Cl)cc4)CC3)cc2)cc1S(=O)(=O)C(F)(F)F [AZD4320] + C[C@@H]1COCCN1C2=NC(=NC(=C2)C3(CC3)[S@](=N)(=O)C)C4=C5C=CNC5=NC=C4 [AZD6738] (first compound max 1 µM, 7x7, partner max 10 µM)", 0.787),
    ("CC(=O)Nc1cccc(-n2c(=O)n(C3CC3)c(=O)c3c(Nc4ccc(I)cc4F)n(C)c(=O)c(C)c32)c1 [Trametinib] + Cc1nc(-c2cn3c(n2)-c2ccc(-c4cnn(C(C)(C)C(N)=O)c4)cc2OCC3)n(C(C)C)n1 [Taselisib] (first compound max 1 µM, 7x7, partner max 10 µM)", 1),
    ("Cc1c2c(nn1C)CSCc1cc(n(C)n1)CSc1cc(c3ccccc3c1)OCCCc1c(C(=O)O)n(C)c3c-2c(Cl)ccc13 [AZD5991] + C[C@@H](Nc1cc(F)cc(F)c1)c1cc(C(=O)N(C)C)cc2c(=O)cc(N3CCOCC3)oc12 [AZD8186] (first compound max 1 µM, 7x7, partner max 3 µM)", 1),
]

* * *

# System: SUP-M2 (T-Cell Non-Hodgkin's Lymphoma)
# testName: Bliss excess, mean over the matrix (fraction); higher = more synergy
Listing of entries alongside the reported Bliss excess.
observationType: Bliss excess

# compound, targetOfAssay, experimentalResult
rows = [
    ("Cc1cc2ncnn2cc1Nc1ncc2c(n1)n(C1CCOCC1)c(=O)n2C [AZD7648] + CN(C)CCCOc1ccc(-c2ccc3ncc4c(c3c2)n(C2CCOCC2)c(=O)n4C)cn1 [AZD0156] (first compound max 10 µM, 7x7, partner max 1 µM)", "SUP-M2 (T-Cell Non-Hodgkin's Lymphoma)", 0.0397),
    ("Cc1c2c(nn1C)CSCc1cc(n(C)n1)CSc1cc(c3ccccc3c1)OCCCc1c(C(=O)O)n(C)c3c-2c(Cl)ccc13 [AZD5991] + CC1(C)CCC(CN2CCN(c3ccc(C(=O)NS(=O)(=O)c4ccc(NCC5CCOCC5)c([N+](=O)[O-])c4)c(Oc4cnc5[nH]ccc5c4)c3)CC2)=C(c2ccc(Cl)cc2)C1 [Venetoclax] (first compound max 1 µM, 7x7, partner max 1 µM)", "SUP-M2 (T-Cell Non-Hodgkin's Lymphoma)", 0.0286),
    ("CC1(C)CCC(CN2CCN(c3ccc(C(=O)NS(=O)(=O)c4ccc(NCC5CCOCC5)c([N+](=O)[O-])c4)c(Oc4cnc5[nH]ccc5c4)c3)CC2)=C(c2ccc(Cl)cc2)C1 [Venetoclax] + C[C@@H](Nc1cc(F)cc(F)c1)c1cc(C(=O)N(C)C)cc2c(=O)cc(N3CCOCC3)oc12 [AZD8186] (first compound max 1 µM, 7x7, partner max 3 µM)", "SUP-M2 (T-Cell Non-Hodgkin's Lymphoma)", 0.0106),
]

* * *

# System: OVCAR-3 (Ovarian Carcinoma)
# testName: Bliss excess, mean over the matrix (fraction); higher = more synergy

# compound, Bliss excess
data = [
    ("CN(C)CCCOc1ccc(-c2ccc3ncc4c(c3c2)n(C2CCOCC2)c(=O)n4C)cn1 [AZD0156] + C=CCn1c(=O)c2cnc(Nc3ccc(N4CCN(C)CC4)cc3)nc2n1-c1cccc(C(C)(C)O)n1 [AZD1775] (first compound max 1 µM, partner max 1 µM)", -0.02),
    ("CN(CCO)CC[C@H](CSc1ccccc1)Nc1ccc(S(=O)(=O)NC(=O)c2ccc(N3CCC([C@@H](O)c4ccccc4-c4ccc(Cl)cc4)CC3)cc2)cc1S(=O)(=O)C(F)(F)F [AZD4320] + C=CCn1c(=O)c2cnc(Nc3ccc(N4CCN(C)CC4)cc3)nc2n1-c1cccc(C(C)(C)O)n1 [AZD1775] (first compound max 1 µM, partner max 1 µM)", 0.0007),
    ("CN(CCO)CC[C@H](CSc1ccccc1)Nc1ccc(S(=O)(=O)NC(=O)c2ccc(N3CCC([C@@H](O)c4ccccc4-c4ccc(Cl)cc4)CC3)cc2)cc1S(=O)(=O)C(F)(F)F [AZD4320] + Cc1cc2ncnn2cc1Nc1ncc2c(n1)n(C1CCOCC1)c(=O)n2C [AZD7648] (first compound max 1 µM, 7x7, partner max 10 µM)", -0.0521),
]
